conditions: hexane:acetonitrile (1:1) solvent system; summary table
Label scheme for Kpartition: lower than 20 is FALSE, 20 and above is TRUE.

Hello, I need to know if CC1(c2cc(-c3cc(C4(C)CCCCC4)cc(C4(C)CCCCC4)c3Op3oc4ccccc4c4ccccc4o3)c(Op3oc4ccccc4c4ccccc4o3)c(C3(C)CCCCC3)c2)CCCCC1 [Ligand G] has measured Kpartition not below 20. Thanks! FALSE

Hello, I need to know if CC(C)(C)c1cc(-c2cc(C(C)(C)C)cc(C(C)(C)C)c2Op2oc3ccc(C(C)(C)C)cc3c3cc(C(C)(C)C)ccc3o2)c(Op2oc3ccc(C(C)(C)C)cc3c3cc(C(C)(C)C)ccc3o2)c(C(C)(C)C)c1 [Ligand B] has measured Kpartition not below 20. Thanks! TRUE

Hello, I need to know if CCN(CC)P(Oc1c(-c2cc(OC)cc(C(C)(C)C)c2OP(N(CC)CC)N(CC)CC)cc(OC)cc1C(C)(C)C)N(CC)CC [Ligand K] has measured Kpartition not below 20. Thanks! FALSE

Hello, I need to know if c1ccc(-c2ccccc2Op2oc3ccccc3c3ccccc3o2)c(Op2oc3ccccc3c3ccccc3o2)c1 [Ligand A, reference compound] has measured Kpartition not below 20. Thanks! FALSE

Hello, I need to know if CC(C)(C)c1cc(-c2cc(C(C)(C)C)cc(C(C)(C)C)c2Op2oc3ccccc3c3ccccc3o2)c(Op2oc3ccccc3c3ccccc3o2)c(C(C)(C)C)c1 [Ligand I] has measured Kpartition not below 20. Thanks! FALSE

Hello, I need to know if CC(C)(C)CC(C)(C)c1cc(-c2cc(C(C)(C)CC(C)(C)C)cc(C(C)(C)CC(C)(C)C)c2Op2oc3ccccc3c3ccccc3o2)c(Op2oc3ccccc3c3ccccc3o2)c(C(C)(C)CC(C)(C)C)c1 [Ligand C] has measured Kpartition not below 20. Thanks! TRUE

Hello, I need to know if CC(C)(C)c1ccc(Op2oc3c(C(C)(C)C)cc(C(C)(C)C)cc3c3cc(C(C)(C)C)cc(C(C)(C)C)c3o2)c(C(C)(C)C)c1 [Ligand M] has measured Kpartition not below 20. Thanks! TRUE

###

conditions: hexane:acetonitrile (1:1) solvent system; summary table
So I've got a bunch of compounds here, and I need their Kpartition values.
Write no unit; give the number alone.

Looking up `CCC(C)(C)c1cc(-c2cc(C(C)(C)CC)cc(C(C)(C)CC)c2Op2oc3ccccc3c3ccccc3o2)c(Op2oc3ccccc3c3ccccc3o2)c(C(C)(C)CC)c1` , I see its Kpartition listed as 6

Looking up `CCCCCC(C)(C)c1cc(-c2cc(C(C)(C)CCCCC)cc(C(C)(C)CCCCC)c2Op2oc3ccccc3c3ccccc3o2)c(Op2oc3ccccc3c3ccccc3o2)c(C(C)(C)CCCCC)c1` , I see its Kpartition listed as 116

Looking up `CC(C)(C)CC(C)(C)c1cc(-c2cc(C(C)(C)CC(C)(C)C)cc(C(C)(C)CC(C)(C)C)c2Op2oc3ccc(C(C)(C)C)cc3c3cc(C(C)(C)C)ccc3o2)c(Op2oc3ccc(C(C)(C)C)cc3c3cc(C(C)(C)C)ccc3o2)c(C(C)(C)CC(C)(C)C)c1` , I see its Kpartition listed as 502

Looking up `CC(C)(C)c1ccc(OP(Oc2ccccc2-c2ccccc2OP(Oc2ccc(C(C)(C)C)cc2C(C)(C)C)Oc2ccc(C(C)(C)C)cc2C(C)(C)C)Oc2ccc(C(C)(C)C)cc2C(C)(C)C)c(C(C)(C)C)c1` , I see its Kpartition listed as 100
